Value source: patent US11780849B2

Biological target: ENPP-1 ECD (Homo sapiens (Human), UniProt P22413)
Sequence (P22413 98-925): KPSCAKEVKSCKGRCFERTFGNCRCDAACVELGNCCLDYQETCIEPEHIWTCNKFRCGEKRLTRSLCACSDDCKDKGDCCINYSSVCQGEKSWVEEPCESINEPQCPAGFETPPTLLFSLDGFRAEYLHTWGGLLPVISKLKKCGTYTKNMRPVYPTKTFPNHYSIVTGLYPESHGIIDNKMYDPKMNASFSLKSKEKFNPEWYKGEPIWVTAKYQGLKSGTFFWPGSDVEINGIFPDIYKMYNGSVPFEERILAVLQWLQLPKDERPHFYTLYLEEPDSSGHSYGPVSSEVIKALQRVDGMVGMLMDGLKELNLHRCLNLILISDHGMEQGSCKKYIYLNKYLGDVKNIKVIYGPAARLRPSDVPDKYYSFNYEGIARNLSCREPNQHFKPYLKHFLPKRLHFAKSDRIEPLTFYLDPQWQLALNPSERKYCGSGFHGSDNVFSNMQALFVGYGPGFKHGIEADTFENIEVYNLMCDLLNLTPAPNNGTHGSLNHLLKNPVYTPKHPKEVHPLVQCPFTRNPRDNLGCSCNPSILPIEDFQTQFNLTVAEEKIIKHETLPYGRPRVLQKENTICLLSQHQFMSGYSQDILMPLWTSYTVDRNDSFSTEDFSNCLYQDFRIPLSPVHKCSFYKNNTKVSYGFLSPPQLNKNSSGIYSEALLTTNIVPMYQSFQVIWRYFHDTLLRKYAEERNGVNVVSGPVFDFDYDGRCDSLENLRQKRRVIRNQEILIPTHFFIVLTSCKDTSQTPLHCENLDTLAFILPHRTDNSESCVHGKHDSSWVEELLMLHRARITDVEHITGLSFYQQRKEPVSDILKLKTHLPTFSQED
Experiment: Assay 2: inhibition of ENPP1 hydrolysis of 2′,3′-cGAMP (AMP-Glo, […] enzyme)
Conditions: Assay 2 (KI), inhibition of ENPP1 hydrolysis of 2′,3′-cGAMP; no unit in Table 18 (Table 17 legend for this assay uses nM)
For each record, write down the corresponding log10 of Ki.
A value of 2 here means Ki of 100 in nM, since values are log10.

Worked cases, log10 of Ki given:
CS(=N)(=O)CC1CCN(c2c(C#N)cnc3c(OCF)cccc23)CC1 (stereo not drawn) [Compound 200]: -1.72
COc1cc2nncc(N3CCC4(CC3)CCN(S(C)(=N)=O)C4)c2cc1Cl (stereo not drawn) [Compound 219]: -1.04
COc1cc2nccc(N3CCC4(CC3)CCN(S(C)(=N)=O)C4)c2cc1F (stereo not drawn) [Compound 205]: -1.49

Working through the 5 compounds below one at a time, give log10 of Ki for each.
1. COc1cc2nccc(Oc3ccc(S(=N)(=O)C4CC4)cc3)c2cc1F (stereo not drawn) [Compound 120]
2. COc1ccc2c(OCc3cc(S(C)(=N)=O)co3)ccnc2c1 (stereo not drawn) [Compound 170]
3. COc1cccc2c(Oc3ccc(S(C)(=N)=O)cc3)ccnc12 (stereo not drawn) [Compound 118]
4. CCS(=N)(=O)N1CCC2(CCN(c3ncnc4cc(OC)c(OC)cc34)CC2)C1 (stereo not drawn) [Compound 159]
5. COc1cc2nccc(N3CC4(CC(CS(C)(=N)=O)C4)C3)c2cc1F (stereo not drawn) [Compound 184]

Result:
-0.92
-0.15
1.56
-1.60
-0.89

Ask: GET /values?readout=log10 of Ki&system=ENPP-1 ECD (Homo sapiens (Human), UniProt P22413)&item= COc1ccc2c(N3CCC(CCS(C)(=N)=O)CC3)ccnc2c1 (stereo not drawn) [Compound 69]
Result: 1.00

* * *

Target: ENPP-1 ECD (Homo sapiens (Human), UniProt P22413)
Test: Assay 2: inhibition of ENPP1 hydrolysis of 2′,3′-cGAMP (AMP-Glo, […] enzyme)
Details: Assay 2 (KI), ENPP1 hydrolysis of 2′,3′-cGAMP, AMP-Glo, […] ENPP-1, 24 μM cGAMP
Recorded Endpoint: Ki

COc1cc2ncc(C#N)c(N3CCC(CCS(C)(=N)=O)CC3)c2cc1Cl (centres unmarked): < 3 nM

Working through the 4 compounds below one at a time, give Ki for each.
1. COc1cc2ncnc(N3CCC(CNS(C)(=N)=O)CC3)c2cc1OC (centres unmarked)
2. COc1cc2nccc(Oc3ccc(S(C)(=N)=O)nc3)c2cc1OC (centres unmarked)
3. COc1cc2nccc(OCc3ccc(S(C)(=N)=O)cc3)c2cc1F (centres unmarked)
4. COCCS(=N)(=O)c1ccc(Oc2ccnc3cc(OC)ccc23)cc1 (centres unmarked)

Result:
["< 3 nM", "3 to 300 nM", "< 3 nM", "< 3 nM"]

* * *

Target: ENPP-1 ECD (Homo sapiens (Human))
Experiment: Assay 2: inhibition of ENPP1 hydrolysis of 2′,3′-cGAMP (AMP-Glo, […] enzyme)
Conditions: Assay 2 (KI), inhibition of ENPP1 hydrolysis of 2′,3′-cGAMP; no unit in Table 18 (Table 17 legend for this assay uses nM)
For each record, write down the corresponding Ki.
Give bare numbers, in nM.

Worked cases, Ki given:
COc1cc2ncnc(OCc3ccc(S(C)(=N)=O)cc3)c2cc1OC (stereo not drawn) [Compound 14]: 15
COc1ccc2c(N3CCC(CCS(C)(=N)=O)CC3)ncnc2c1OC (stereo not drawn) [Compound 165]: 1400
COc1cc(F)cc2c(N3CCC(CS(C)(=N)=O)CC3)ncnc12 (stereo not drawn) [Compound 183]: 5.2
COc1cc2ncnc(N3CCC4(CC3)CCN(S(C)(=N)=O)C4)c2cc1Cl (stereo not drawn) [Compound 212]: 0.047
COc1ccc2c(-c3ccc(CNS(C)(=N)=O)cc3)ccnc2c1 (stereo not drawn) [Compound 162]: 6.9

Working through the 3 compounds below one at a time, give Ki for each.
1. COc1ccc2c(O[C@@H](C)c3cccc(S(C)(=N)=O)c3)ccnc2c1 (stereo partly drawn) [Compound 245]
2. COc1cccc2c(N3CCC(O)(CS(C)(=N)=O)CC3)c(C#N)cnc12 (stereo not drawn) [Compound 198]
3. COc1ccc2c(Oc3ccc(S(C)(=N)=O)cc3)cc(C)nc2c1 (stereo not drawn) [Compound 124]

Result:
[0.23, 0.014, 0.73]

* * *

Target: ENPP1 on MDA-MB-231 cells (Homo sapiens (Human), UniProt P22413)
Sequence (P22413 whole entry): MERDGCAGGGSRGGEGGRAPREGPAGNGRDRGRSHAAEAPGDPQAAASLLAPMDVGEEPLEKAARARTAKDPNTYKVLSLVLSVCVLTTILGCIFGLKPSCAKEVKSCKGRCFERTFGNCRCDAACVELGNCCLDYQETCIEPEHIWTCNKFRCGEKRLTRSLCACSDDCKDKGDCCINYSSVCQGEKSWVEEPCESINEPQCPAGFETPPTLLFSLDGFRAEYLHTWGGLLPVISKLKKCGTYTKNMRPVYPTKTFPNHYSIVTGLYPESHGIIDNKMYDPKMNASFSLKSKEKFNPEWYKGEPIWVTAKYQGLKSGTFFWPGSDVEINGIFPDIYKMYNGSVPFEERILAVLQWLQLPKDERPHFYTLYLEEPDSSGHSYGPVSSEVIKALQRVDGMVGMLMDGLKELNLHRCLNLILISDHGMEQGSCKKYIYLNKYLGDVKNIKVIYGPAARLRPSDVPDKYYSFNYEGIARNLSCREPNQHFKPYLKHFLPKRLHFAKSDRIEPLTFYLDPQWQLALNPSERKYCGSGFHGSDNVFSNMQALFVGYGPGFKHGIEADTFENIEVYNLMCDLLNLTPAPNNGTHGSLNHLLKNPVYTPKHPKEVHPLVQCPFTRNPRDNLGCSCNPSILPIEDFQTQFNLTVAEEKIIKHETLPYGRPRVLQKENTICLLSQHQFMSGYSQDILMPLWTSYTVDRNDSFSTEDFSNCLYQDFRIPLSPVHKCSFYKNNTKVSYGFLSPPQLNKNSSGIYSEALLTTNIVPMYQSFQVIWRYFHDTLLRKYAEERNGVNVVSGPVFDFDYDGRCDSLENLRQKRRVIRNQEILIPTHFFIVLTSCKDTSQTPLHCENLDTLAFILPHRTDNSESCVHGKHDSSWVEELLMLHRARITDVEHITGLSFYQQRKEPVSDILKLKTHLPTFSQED
Test: Assay 3: inhibition of ENPP1 hydrolysis of AMP p-nitrophenyl ester on MDA-MB-231 cells
For each record, write down the corresponding pKi.
Numbers only, as −log10 of the molar value.

Worked cases, pKi given:
COc1cc2ncnc(N3CC4(CC(CS(C)(=N)=O)C4)C3)c2cc1OC (stereo not drawn): 8.92
COc1cc2nccc(Oc3ccc(S(C)(=N)=O)cc3)c2cc1OC (stereo not drawn): 7.21
COc1cc2ncnc(N3CCC4(CC3)CCN(S(=N)(=O)CC(C)(C)O)C4)c2cc1OC (stereo not drawn): 8.27
COc1cccc2c(N3CC[C@@H](CS(C)(=N)=O)C3)ncnc12 (stereo partly drawn): 7.82
COc1ccc2c(N3CCC4(CC3)CN(S(C)(=N)=O)C4)ccnc2c1 (stereo not drawn): 6.80
COc1ccc2c(OCc3cc(S(C)(=N)=O)co3)ccnc2c1 (stereo not drawn): 7.60
COc1ccc2c(N3CCC4(CC3)CCN(S(C)(=N)=O)C4)ccnc2c1 (stereo not drawn): 7.60
COc1cc2ncc(C#N)c(N3CCC(CCS(C)(=N)=O)CC3)c2cc1OC (stereo not drawn): 7.72

Ask: Reported pKi, compound COc1cccc2c(N3CCC(O)(CS(=N)(=O)C4CCC4)CC3)ncnc12 (stereo not drawn) : ____
Result: 7.82

* * *

Molecular target: ENPP-1 ECD (Homo sapiens (Human), UniProt P22413)
Test: Assay 1: inhibition of ENPP1 hydrolysis of 2′,3′-cGAMP (AMP-Glo, […] enzyme)
Settings: Assay 1 (IC50), inhibition of ENPP1 hydrolysis of 2′,3′-cGAMP; no unit in Table 18 (Table 17 legend for this assay uses nM)
# note: exactly 3 nM is not below, so it is f; use t for IC50 strictly under it

Answered cases to consult:
CS(=N)(=O)Cc1ccc(-c2ccnc3ccccc23)cc1 (centres unmarked): f
COc1cccc2c(N3CCC(CCS(C)(=N)=O)CC3)c(C#N)cnc12 (centres unmarked): f
COc1ccc2c(CC(=O)N3CCS(=N)(=O)CC3)ccnc2c1: f
COc1cc2ncnc(N3CCC4(CC3)CCN(S(C)(=N)=O)C4)c2cc1OC (centres unmarked): t

Read the next record carefully.
Ask: I'd appreciate it if you could check whether COc1cc2ncnc(-c3ccc4c(c3)CN(S(C)(=N)=O)CC4)c2cc1OC (centres unmarked) has IC50 smaller than 3 nM.
Result: t

* * *

Target: ENPP-1 ECD (Homo sapiens (Human))
Test: Assay 2: inhibition of ENPP1 hydrolysis of 2′,3′-cGAMP (AMP-Glo, […] enzyme)
Settings: read-out: Assay 2 (KI); inhibition of ENPP1 hydrolysis of 2′,3′-cGAMP; no unit in Table 18 (Table 17 legend for this assay uses nM)
Recorded Endpoint: Ki (nM)
Answers are plain numbers, in nM.

Worked cases, Ki given:
COc1cccc2c(N3CCC(C[S@](C)(=N)=O)CC3)ncnc12 [Compound 146b]: 66
COc1cc2nncc(N3CCC4(CC3)CCN([S@](C)(=N)=O)C4)c2cc1Cl [Compound 219a]: 0.071
COc1cccc2c(N3CCC(C[S@@](=N)(=O)C4CC4)CC3)c(C#N)cnc12 [Compound 189a]: 8.8

Working through the 4 molecules below one at a time, give Ki for each.
1. COc1cccc2c(N3CCC(O)(C[S@@](C)(=N)=O)CC3)c(C#N)cnc12 [Compound 198a]
2. COc1cc2ncnc(-c3ccc4c(c3)CN([S@](C)(=N)=O)CC4)c2cc1OC [Compound 37b]
3. COc1cc(F)cc2c(N3CCC(C[S@@](C)(=N)=O)CC3)ncnc12 [Compound 183a]
4. COc1cc2ncnc(N3CC4(CC(C[S@@](C)(=N)=O)C4)C3)c2cc1OC [Compound 237a]

Result:
[0.0025, 0.28, 2.9, 2.4]

Ask: Reported Ki, molecule CC[S@](=N)(=O)CC1(O)CCN(c2ncnc3c(OC)cccc23)CC1 [Compound 195b] : ____
Result: 7.7

* * *

For each record, write down the corresponding Ki.
Molecular target: ENPP-1 ECD (Homo sapiens (Human))
Test: Assay 2: inhibition of ENPP1 hydrolysis of 2′,3′-cGAMP (AMP-Glo, […] enzyme)
Details: Assay 2 (KI), ENPP1 hydrolysis of 2′,3′-cGAMP, AMP-Glo, […] ENPP-1, 24 μM cGAMP

Worked cases, Ki given:
COc1ccc2c(-c3ccc4c(c3)CN(S(C)(=N)=O)CC4)ccnc2c1 (stereo not shown): 3 to 300 nM
COc1ccc2c(NCc3ccc(S(C)(=N)=O)cc3)ccnc2c1 (stereo not shown): < 3 nM
COc1cccc2c(Oc3ccc(S(C)(=N)=O)cc3)ccnc12 (stereo not shown): 3 to 300 nM

Working through the 3 molecules below one at a time, give Ki for each.
1. COc1ccc2c(OCc3ccc(S(C)(=N)=O)cc3Br)ccnc2c1 (stereo not shown)
2. COc1ccc2c(Oc3ccc(S(C)(=N)=O)cc3)cc(C)nc2c1 (stereo not shown)
3. COc1ccc2c(N3CCC(CCS(C)(=N)=O)CC3)ncnc2c1 (stereo not shown)

Result:
["3 to 300 nM", "< 3 nM", "< 3 nM"]

Working through the 8 molecules below one at a time, give Ki for each.
1. COc1cc2nccc(Oc3ccc(S(C)(=N)=O)cc3F)c2cc1OC (stereo not shown)
2. COc1ccc2c(Oc3ccc(S(C)(=N)=O)cc3)cnnc2c1 (stereo not shown)
3. COc1ccc2c(Oc3ccc(S(C)(=N)=O)cc3)c(C#N)cnc2c1 (stereo not shown)
4. COc1ccc2c(N3CCC4(CC3)CCN(S(C)(=N)=O)C4)ccnc2c1 (stereo not shown)
5. COc1cc2ncnc(Oc3ccc(S(C)(=N)=O)cc3)c2cc1OC (stereo not shown)
6. COc1ccc2c(Oc3ccc(CS(C)(=N)=O)cc3)ccnc2c1 (stereo not shown)
7. COc1cc2nncc(N3CCC(CCS(C)(=N)=O)CC3)c2cc1OC (stereo not shown)
8. COc1ccc2c(-c3ccc(CCS(C)(=N)=O)cc3)ccnc2c1 (stereo not shown)

Result:
["3 to 300 nM", "3 to 300 nM", "3 to 300 nM", "< 3 nM", "3 to 300 nM", "3 to 300 nM", "< 3 nM", "3 to 300 nM"]

Working through the 5 molecules below one at a time, give Ki for each.
1. COc1ccc2c(-c3ccc(CNS(C)(=N)=O)cc3)ccnc2c1 (stereo not shown)
2. COc1cc2nccc(Oc3ccc(S(=N)(=O)C4CC4)cc3)c2cc1F (stereo not shown)
3. COc1ccc2c(OCc3ccc(S(C)(=N)=O)cc3F)ccnc2c1 (stereo not shown)
4. COc1cc2ncnc(-c3ccc(CCS(C)(=N)=O)cc3)c2cc1OC (stereo not shown)
5. COc1cc2nccc(-c3ccc4c(c3)CN(S(C)(=N)=O)CC4)c2cc1OC (stereo not shown)

Result:
1: 3 to 300 nM; 2: < 3 nM; 3: < 3 nM; 4: 3 to 300 nM; 5: < 3 nM
